Test system: RPS6KA5(Kin.Dom.1-N-terminal)
Conditions: Compound Concentration (nM):1000;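 further: KINOMEscan scanMAX binding as percent activity remaining versus control; lower means stronger binding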
compounds and their reported Percent Control
Assay Readout: Percent Control (%)

| Compound | Data Value |
| --- | --- |
| CCS(=O)(=O)c1ccc(OC)c(Nc2ncc(-c3cccc(OC)c3)o2)c1 [GW580509X] | 100 |
| COc1ccc2[nH]c3c4[nH]c5ccc(OC)cc5c4c4c(c3c2c1)C(=O)NC4=O [GW296115X] | 53 |
| Cl.O=C(O[C@H]1CN[C@H](C#Cc2cc3ncnc(Nc4ccc5c(cnn5Cc5ccccc5)c4)c3s2)C1)N1CCOCC1 [GSK200398A] | 100 |
| CCc1ccc(Oc2nccc(-c3c(-c4ccc(F)cc4)ncn3C3CCNCC3)n2)cc1 | 98 |

---

Test system: RSK3(Kin.Dom.1-N-terminal)
Construct: gene RPS6KA2
Conditions: Compound Concentration (nM):1000
Assay Readout: Percent Control (%)

| Compound | Data Value |
| --- | --- |
| NS(=O)(=O)c1ccc(N/N=C2\C(=O)Nc3ccc(-c4cnco4)cc32)cc1 [GW276655] | 100 |
| COC(=O)Nc1nc2ccc(Oc3ccc(NC(=O)Nc4cc(C(F)(F)F)ccc4F)cc3)cc2s1.Cl [GW693917A] | 65 |
| Cl.O=S1CCN(Cc2ccc(-c3ccc4ncnc(Nc5ccc(OCc6ccccc6)c(F)c5)c4c3)o2)CC1 [GW576924A] | 100 |
| COc1cc(C=NNc2ncnc3c2cnn3-c2ccccc2)ccc1O [GW513184X] | 100 |
| Cl.O=C(Nc1ccc(Oc2ccc3[nH]c(NC(=O)c4ccco4)nc3c2)cc1)Nc1cc(C(F)(F)F)ccc1F [GW683134A] | 92 |
| COc1cc(N2CCN(C(C)C)CC2)ccc1Nc1nc(Nc2ccc(F)cc2C(=O)NC[C@@H](O)CO)c2cc[nH]c2n1 [GSK1392956A] | 67 |
| CCS(=O)(=O)c1ccc(OC)c(Nc2ncc(-c3cccc(OC)c3)o2)c1 [GW580509X] | 100 |
| CCc1ccc(Oc2nccc(-c3c(-c4ccc(F)cc4)ncn3C3CCNCC3)n2)cc1 [SB-242719] | 92 |
| COc1ccc2cc(-c3c(-c4ccncc4)nc(-c4ccc(S(C)(=O)=O)cc4C)n3C)ccc2c1 [SB-633825] | 98 |
| COc1ccc(COc2ccc(Cc3cnc(N)nc3N)cc2OC)cc1 [GW632580X] | 79 |
| Nc1ncnc2occ(-c3ccc(NC(=O)Nc4cc(C(F)(F)F)ccc4F)cc3)c12 [GW770249X] | 66 |
| CC1=C(C(=O)Nc2ccc3[nH]ncc3c2)C(c2ccc3ccccc3c2)CC(=O)N1 (stereo not drawn) [GSK270822A] | 84 |

---

System: RAF1
Conditions: Compound Concentration (nM):1000
molecules and their reported Percent Control
Assay Readout: Percent Control (%)

| Molecule | Assay Readout | Data Value |
| --- | --- | --- |
| COc1ccccc1-c1cc(/C=C2\C(=O)Nc3ncc(Br)cc32)cc(Br)c1O [GW442130X] | Percent Control | 100 |
| CCS(=O)(=O)c1ccc(OC)c(Nc2ncc(-c3cccc(OC)c3)o2)c1 [GW580509X] | Percent Control | 100 |
| COc1ccc2cc(-c3c(-c4ccncc4)nc(-c4ccc(S(C)(=O)=O)cc4C)n3C)ccc2c1 | Percent Control | 74 |
| COc1cccc(-n2ncc3c(N/N=C/c4ccncc4)ncnc32)c1 [GW784752X] | Percent Control | 58 |
| CC(C)COC(=O)c1ccc2c(c1)/C(=C/Nc1ccc(S(N)(=O)=O)cc1)C(=O)N2 [GW416981X] | Percent Control | 100 |
| COc1ccc2c(-c3ccnc(Nc4cccc(OC(F)(F)F)c4)n3)cnn2n1 [GW810372X] | Percent Control | 100 |
| COc1cc(C=NNc2ncnc3c2cnn3-c2ccccc2)ccc1O [GW513184X] | Percent Control | 100 |
| CC1=C(C(=O)Nc2ccc3[nH]ncc3c2)C(c2ccc(Cl)c(Cl)c2)CC(=O)N1 (stereo not drawn) [GSK299115A] | Percent Control | 100 |
| CCc1ccc(Oc2nccc(-c3c(-c4ccc(F)cc4)ncn3C3CCNCC3)n2)cc1 | Percent Control | 100 |
| COc1cc2ncn(-c3cc(O[C@H](C)c4ccccc4Cl)c(C(N)=O)s3)c2cc1OC [GSK237701A] | Percent Control | 73 |
| NS(=O)(=O)c1ccc(N/N=C2\C(=O)Nc3ccc(C(=O)NCc4ccncc4)cc32)cc1 [GW300657X] | Percent Control | 100 |
| COc1cc(C)c(N(C)C(=O)CN(C)C)cc1Nc1nc(Nc2cccc(F)c2C(N)=O)c2cc[nH]c2n1 | Percent Control | 100 |
| NS(=O)(=O)c1ccc(Nc2ncc(-c3ccccc3)o2)cc1 [GW572399X] | Percent Control | 100 |
| CCS(=O)(=O)c1ccc(OC)c(Nc2ncc(-c3cccc(F)c3)o2)c1 [GW621970X] | Percent Control | 100 |
| COc1cc(N2CCN(C(C)C)CC2)ccc1Nc1nc(Nc2ccc(F)cc2C(=O)NC[C@@H](O)CO)c2cc[nH]c2n1 [GSK1392956A] | Percent Control | 100 |
| Cl.O=C(Nc1ccc(Oc2ccc3[nH]c(NC(=O)c4ccccc4)nc3c2)cc1)Nc1cc(C(F)(F)F)ccc1F [GW709042A] | Percent Control | 27 |
| CCn1c(-c2nonc2N)nc2c(C#CC(C)(C)O)nc(OCCNC)cc21.Cl | Percent Control | 100 |
| COc1cc(/C=N/Nc2ncnc3[nH]ncc23)ccc1O [GW578748X] | Percent Control | 100 |
| Cl.O=C(Nc1ccc(Oc2ccc3[nH]c(NC(=O)c4ccco4)nc3c2)cc1)Nc1cc(C(F)(F)F)ccc1F [GW683134A] | Percent Control | 9.5 |
| Cc1cc(O)cc(C)c1/C=C/c1cncc(C(N)=O)c1 [GW435821X] | Percent Control | 58 |
| COC(=O)Nc1nc2ccc(Oc3ccc(NC(=O)Nc4cc(C(F)(F)F)ccc4F)cc3)cc2s1.Cl [GW693917A] | Percent Control | 17 |
| CN(C)c1cc2c(Nc3ccc4c(cnn4Cc4ccccc4)c3)ncnc2cn1 [GW282974X] | Percent Control | 100 |
| Cl.O=S1CCN(Cc2ccc(-c3ccc4ncnc(Nc5ccc(OCc6ccccc6)c(F)c5)c4c3)o2)CC1 [GW576924A] | Percent Control | 100 |
| Nc1ncnc2occ(-c3ccc(NC(=O)Nc4cc(C(F)(F)F)ccc4F)cc3)c12 [GW770249X] | Percent Control | 38 |

---

Tested on: PKAC-beta
Construct: gene PRKACB
Conditions: Compound Concentration (nM):1000

| Molecule | Tested System | Percent Control |
| --- | --- | --- |
| NS(=O)(=O)c1ccc(N/N=C2\C(=O)Nc3ccc(C(=O)NCCc4c[nH]cn4)cc32)cc1 [GW300660X] | PKAC-beta | 100% |
| Cl.c1ccc(Cc2nc3ccc(Nc4ncnc5ccccc45)cc3[nH]2)cc1 [GR269666A] | PKAC-beta | 100% |
| COc1ccc2[nH]c3c4[nH]c5ccc(OC)cc5c4c4c(c3c2c1)C(=O)NC4=O [GW296115X] | PKAC-beta | 89% |
| COc1cccc(-n2ncc3c(N/N=C/c4ccncc4)ncnc32)c1 [GW784752X] | PKAC-beta | 99% |
| COc1cc(N2CCN(C(C)C)CC2)ccc1Nc1nc(Nc2ccc(F)cc2C(=O)NC[C@@H](O)CO)c2cc[nH]c2n1 [GSK1392956A] | PKAC-beta | 100% |
| CC1=C(C(=O)Nc2ccc3[nH]ncc3c2)C(c2ccc3ccccc3c2)CC(=O)N1 (stereo not shown) [GSK270822A] | PKAC-beta | 68% |
| COc1cc2ncnc(Nc3ccc4c(cnn4Cc4ccccc4)c3)c2cc1OC.Cl [GW282449A] | PKAC-beta | 37% |
| Cl.O=C(Nc1ccc(Oc2ccc3[nH]c(NC(=O)c4ccco4)nc3c2)cc1)Nc1cc(C(F)(F)F)ccc1F [GW683134A] | PKAC-beta | 100% |
| CN(C)c1cc2c(Nc3ccc4c(cnn4Cc4ccccc4)c3)ncnc2cn1 [GW282974X] | PKAC-beta | 95% |
| COc1cc(C)c(N(C)C(=O)CN(C)C)cc1Nc1nc(Nc2cccc(F)c2C(N)=O)c2cc[nH]c2n1 | PKAC-beta | 100% |
| CCS(=O)(=O)c1ccc(OC)c(Nc2ncc(-c3cccc(F)c3)o2)c1 [GW621970X] | PKAC-beta | 100% |
| CCc1ccc(Oc2nccc(-c3c(-c4ccc(F)cc4)ncn3C3CCNCC3)n2)cc1 | PKAC-beta | 31% |
| COc1cc(C=NNc2ncnc3c2cnn3-c2ccccc2)ccc1O [GW513184X] | PKAC-beta | 100% |
| COc1ccccc1-c1cc(/C=C2\C(=O)Nc3ncc(Br)cc32)cc(Br)c1O [GW442130X] | PKAC-beta | 100% |
| COc1ccc(COc2ccc(Cc3cnc(N)nc3N)cc2OC)cc1 [GW632580X] | PKAC-beta | 100% |
| Cl.O=C(Nc1ccc(Oc2ccc3[nH]c(NC(=O)c4ccccc4)nc3c2)cc1)Nc1cc(C(F)(F)F)ccc1F [GW709042A] | PKAC-beta | 100% |
| CN1CCN(C(=O)c2ccc(NC(=O)Nc3ccc(N(C)c4ccnc(Nc5ccc(CS(C)(=O)=O)cc5)n4)cc3)cc2)CC1.Cl [GW830263A] | PKAC-beta | 100% |
| Cl.O=S1CCN(Cc2ccc(-c3ccc4ncnc(Nc5ccc(OCc6ccccc6)c(F)c5)c4c3)o2)CC1 [GW576924A] | PKAC-beta | 100% |
| CC1=C(C(=O)Nc2ccc3[nH]ncc3c2)C(c2ccc(Cl)c(Cl)c2)CC(=O)N1 (stereo not shown) [GSK299115A] | PKAC-beta | 63% |
